Entry source: patent US20250320246A1

# Test system: sporadic PD patient fibroblasts
# assayProcedure: Cellular ATP levels in sporadic PD patient fibroblasts, full ATP assay
# Type: cell-based, human
# condition: Homo sapiens, Fibroblast, 24 h, max response with lowest dose of compound (0.06 nM), 3 sporadic PD patient fibroblasts, read-out: ATP % of vehicle, bottom %
Param label: returns label 1 when activity at 60 pM < 90%, returns label 0 otherwise, including exact equality.

Before answering, review these 5 worked examples.
>  <compound>
C[C@H](CCC(=O)O)[C@H]1CC[C@H]2[C@@H]3[C@@H](O)C[C@@H]4CNCC[C@]4(C)[C@H]3CC[C@]12C.Cl [Compound 28a, hydrochloride salt]

>  <groupLabel>
label 0

$$$$
>  <compound>
CC(C)[C@H](N)C(=O)N1CC[C@@]2(C)[C@H](C[C@H](O)[C@@H]3[C@@H]2CC[C@]2(C)[C@@H]([C@H](C)CCCC(=O)O)CC[C@@H]32)C1 [Compound 41b]

>  <groupLabel>
label 1

$$$$
>  <compound>
C[C@H](CCC(=O)O)[C@H]1CC[C@H]2[C@@H]3[C@@H](O)C[C@@H]4CN(C(=O)[C@@H](N)Cc5c[nH]c6ccccc56)CC[C@]4(C)[C@H]3CC[C@]12C [Compound 44a]

>  <groupLabel>
label 1

$$$$
>  <compound>
C[C@H](CCCC(=O)O)[C@H]1CC[C@H]2[C@@H]3[C@@H](O)C[C@@H]4CN(C(=O)CO)CC[C@]4(C)[C@H]3CC[C@]12C [Compound 40b]

>  <groupLabel>
label 0

$$$$
>  <compound>
C[C@H](CCCC(=O)O)[C@H]1CC[C@H]2[C@@H]3[C@@H](O)C[C@@H]4CNCC[C@]4(C)[C@H]3CC[C@]12C.Cl [Compound 28b, hydrochloride]

>  <groupLabel>
label 0

$$$$

-- ask Does the reported activity at 60 pM of C[C@H](CCC(=O)O)[C@H]1CC[C@H]2[C@@H]3[C@@H](O)C[C@@H]4CN(C(=O)[C@@H](N)Cc5ccc(O)cc5)CC[C@]4(C)[C@H]3CC[C@]12C [Compound 45a] stay below 90%?
-- reply label 1
